target: T1, human CD38 on cells (human, UniProt P28907 1-300); test: FACS Scatchard on OPM2 cells, IgG format
T1 construct: The cell that carried CD38 is named under assay in each row; also called CD38 on Raji, RPMI8226, OPM2, CCRF-CEM, human erythrocytes, CD38 CHO-K1 transfectants
experimental_readout: pEC50
Scale explanation: pEC50 corresponds to minus log10 of a concentration expressed in moles per litre.

Would you please look over these solved cases?
{"columns": ["binder", "pEC50"],
 "data": [
  ["MOR06184 IgG (antibody, V domains shown) VH: QVQLVESGGGLVQPGGSLRLSCAASGFTFSSYYMNWVRQAPGKGLEWVSAISHDGNVKYYADSVKGRFTISRDNSKNTLYLQMNSLRAEDTAVYYCARDLPLVYTGFAYWGQGTLVTVSS VL: DIELTQPPSVSVAPGQTARISCSGDNLRHYYVYWYQQKPGQAPVLVIYGDSKRPSGIPERFSGSNSGNTATLTISGTQAEDEADYYCQTYTGGASLVFGGGTKLTVLG", 7.98],
  ["MOR06187 IgG (antibody, V domains shown) VH: QVQLVESGGGLVQPGGSLRLSCAASGFTFSSYYMNWVRQAPGKGLEWVSAISSNGDITYYADSVKGRFTISRDNSKNTLYLQMNSLRAEDTAVYYCARDLPLVYTGFAYWGQGTLVTVSS VL: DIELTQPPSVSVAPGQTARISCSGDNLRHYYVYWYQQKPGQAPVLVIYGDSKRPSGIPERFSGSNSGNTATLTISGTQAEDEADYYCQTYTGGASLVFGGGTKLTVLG", 8.03]
]}

Here's the next entry for you.
## Task Recall and state the measured pEC50 for MOR06185 IgG (antibody, V domains shown) VH: QVQLVESGGGLVQPGGSLRLSCAASGFTFSSYYMNWVRQAPGKGLEWVSAISMNGDYISYADSVKGRFTISRDNSKNTLYLQMNSLRAEDTAVYYCARDLPLVYTGFAYWGQGTLVTVSS VL: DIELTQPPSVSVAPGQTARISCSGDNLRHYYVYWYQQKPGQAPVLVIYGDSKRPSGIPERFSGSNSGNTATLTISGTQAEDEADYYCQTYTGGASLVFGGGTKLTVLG .
## Result 7.94
